Assay: Particle size and polydispersity index of nanoparticle compositions (Zetasizer Nano ZS)
Format: physicochemical
Conditions: Table 20-1; rows without footnote mark
Experimental: A Zetasizer Nano ZS (Malvern Instruments Ltd, Malvern, Worcestershire, UK) can be used to determine the particle size, the polydispersity index (PDI) and the zeta potential of the nanoparticle compositions in 1×PBS in determining particle size and 15 mM PBS in determining zeta potential.
RECORDED ENDPOINT: Size (nm)

Some molecules with recorded Size (nm):
MOLECULE	VALUE UNIT	EXPERIMENTAL RESULT
CCCCCCCCCCCCN(CCCCCCCCCCCC)CCN(CCO)CCCCCC(=O)OCCCCC [Compound 20-3]	nm	76.4
CCCCCCCCCCCCCCN(CCCCCCCCCCCCCC)CCN(CCCO)CCCCCCCCCCCC [Compound 20-11]	nm	96.1
CCCCCCCCCCCCN(CCO)CCN(CCCCCCCC(=O)OCCCCCCCCC)CCCCCCCC(=O)OCCCCCCCCC [Compound 20-10]	nm	85.7
CCCCCCCCCN(CCO)CCN(CCCCCCCCC)CCCCCCCCC [Compound 20-16]	nm	73.5
CCCCCCCCCCCCN(CCCO)CCN(CCCCCCCCCCCC)CCCCCCCCCCCC [Compound 20-21]	nm	78.6

A: CCCCCC=CCC=CCCCCCCCCC(CCCCCCCCC=CCC=CCCCCC)OC(=O)CCCN(C)C (stereo not shown) [MC3, reference compound]
B: CCCCC/C=C\C/C=C\CCCCCCCCN(CCO)CCN(CCCCCCCC/C=C\C/C=C\CCCCC)CCCCCCCC/C=C\C/C=C\CCCCC [Compound 20-14]
For the two items A and B , which reports the higher Size (nm) value? Mark your answer with the label of the selected entry. B

---

test: Lipid levels in liver and spleen 48 hours after administration; type: in vivo, rats; conditions: spleen, 48 hours after administration
RECORDED ENDPOINT: % remaining dose in spleen (%)

COMPOUND	EXPERIMENTAL RESULT
CCCCCCCCCN(CCCCCCCCC)CCN(CCCCCCCCC)CC(=O)N1CCN(C(=O)CN(CCCCCCCCC)CCCCCCCCC)CC1 [Compound 4]	0.61

1: CCCCCC=CCC=CCCCCCCCCC(CCCCCCCCC=CCC=CCCCCC)OC(=O)CCCN(C)C (stereo not shown) [MC3, reference compound]
2: CCCCCCCCCCCCN(CCCCCCCCCCCC)CCN(CCCCCCCCCCCC)CCN1CCN(CCN(CCCCCCCCCCCC(=O)OC)CCCCCCCCCCCC(=O)OC)CC1 [Compound 16]
3: CCCCCCCCCCCCN(CCCCCCCCCCCC)CCN(CCCCCCCCCCCC)CCN1CCN(CCN(CCCCCCCCCCCC)CCCCCCCCCCCC(=O)OC)CC1 [Compound 15]
Descending sort on % remaining dose in spleen required. Output the labels ranked as instructed. 1, 3, 2
(1: 0.44%, 3: 0.089%, 2: 0.026%)

---

experiment: Particle size and polydispersity index of nanoparticle compositions (Zetasizer Nano ZS); format: physicochemical; conditions: Table 1b
RECORDED ENDPOINT: Size (nm)

Guide cases for Size (nm), answers given:
MOLECULE	Size (nm)
CCCCCCCCCN(CCCCCCCCC)CCC1CCN(C(=O)CN(CCCCCCCCC)CCN(CCCCCCCCC)CCCCCCCCC)C1 (stereo not drawn)	74.4
CCCCCCCCCN(CCCOC(=O)CCCCC)CCCC1CCN(C(=O)CCN(CCCCCCCCC)CCN(CCCCCCCCC)CCCCCCCCC)CC1	80.9

a: CCCCCCCCCN(CCCCCCCCC)CCN(CCCCCCCCC)CC(=O)N1CCN(C(=O)CN(CCCCCCCCC)CCCCCCC(=O)OCC)CC1
b: CCCCCCCCCN(CCCC(=O)OCCCCC)CCCC1CCN(C(=O)CCN(CCCCCCCCC)CCN(CCCCCCCCC)CCCCCCCCC)CC1
Compare reported Size (nm) values for a and b . Which is lower? Your answer should be the label of the entry you select. b
(b: 68.6 nm, a: 103.0 nm)

---

experiment: Particle size and polydispersity index of nanoparticle compositions (Zetasizer Nano ZS); format: physicochemical; conditions: Table 19-1
RECORDED ENDPOINT: Size (nm)

Answered cases to consult:
MOLECULE	VALUE UNIT	EXPERIMENTAL RESULT
CCCCCC=CCC=CCCCCCCCCC(CCCCCCCCC=CCC=CCCCCC)OC(=O)CCCN(C)C (stereo not shown) [MC3, reference compound]	nm	83.3
CCCCCCCCCN(CCCCCCCCC)CCN1CCNCC1	nm	98.0
CCCCC/C=C\C/C=C\CCCCCCCCN(CCCCCCCC/C=C\C/C=C\CCCCC)CCN1CCN(CCCCCCCCCCCC)CC1	nm	137.7
CCCCCCCCCCCCN(CCCCCCCCCCCC)CCN1CCN(Cc2ccc(OC)cc2)CC1	nm	106.9

a: CCCCCCCCCCCCN(CCCCCCCCCCCC)CCN1CCNCC1
b: CCCCCCCCCCCCN(CCCCCCCCCCCC)CCN1CCN(C)CC1
c: CCCCC/C=C\C/C=C\CCCCCCCCN(CCCCCCCC/C=C\C/C=C\CCCCC)CCN1CCNCC1
Sort the 3 molecules by Size (nm); largest first, smallest last. In plain terms: list the labels in the order you were asked to. b, a, c

---

test system: IL-6; test: Cytokine production induced by sample formulations: IL-6; assay type: in vivo; conditions: Table 17-4; mice, i.v., 0.5 mpk, 6 hours; in pg/mL (unit assumed)
RECORDED ENDPOINT: IL-6

Reference set, count: 5
COMPOUND	EXPERIMENTAL RESULT
CCCCCCCCCCCCCCN(CCO)CCCCCCCCCCCCCC	49.9
CCCCCCCCCCCCN(CCCCO)CCCCCCCCCCCC	84.3
CCCCC/C=C\C/C=C\CCCCCCCCN(CCO)CCCCCC	9.88
CCCCC/C=C\C/C=C\CCCCCCCCN(CCO)CCCCCCCCCCCC	80.7
CCCCC/C=C\C/C=C\CCCCCCCCN(CCO)CCCCCCCCCCCCCC	49.2

a: CCCCC/C=C\C/C=C\CCCCCCCCN(CCCCCCCC/C=C\C/C=C\CCCCC)CCOC
b: CCCCCC=CCC=CCCCCCCCCC(CCCCCCCCC=CCC=CCCCCC)OC(=O)CCCN(C)C (centres unmarked) [MC3, reference compound]
c: CCCCCCCCCN(CCO)CCCCCCCCC
Provide the items ranked by increasing IL-6. Hello, could you send the labels back in the order asked? Thank you. c, a, b

---

experiment: Encapsulation efficiency of RNA (QUANT-IT RIBOGREEN RNA assay); assay type: physicochemical; conditions: Table 17-1
RECORDED ENDPOINT: EE (%)

CCCCC/C=C\C/C=C\CCCCCCCCN(CCO)CCCCCCCCC 82.1
CCCCCCCCCCCCN(CCCO)CCCCCCCCCCCC 95.04
CCCCC/C=C\C/C=C\CCCCCCCCN(CCCCCCCC/C=C\C/C=C\CCCCC)CCOC 95.0
CCCCCCCCCCCCCCN(CCO)CCCCCCCCCCCCCC 95.6

---

experiment: Particle size and polydispersity index of nanoparticle compositions (Zetasizer Nano ZS); type: physicochemical; conditions: Table 1b
RECORDED ENDPOINT: PDI

MOLECULE	PDI
CCCCCCCCCN(CCCCC(=O)OCCCC)CCC1CCN(C(=O)CN(CCCCCCCCC)CCN(CCCCCCCCC)CCCCCCCCC)CC1	0.23
CCCCCCCCCN(CCCCCCCCC)CCN(CCCCCCCCC)CC(=O)N1CCN(C(=O)CN(CCCCCCCCC)CCCCC(=O)OCCCC)CC1	0.23
CCCCCCCCCN(CCCCCCCCC)CCN(CCCCCCCCC)CC(=O)N1CCC(CN(CCCCCCCCC)CCCC(=O)OCCCCC)C1 (centres unmarked)	0.24

1: CCCCCC=CCC=CCCCCCCCCC(CCCCCCCCC=CCC=CCCCCC)OC(=O)CCCN(C)C (centres unmarked) [MC3, reference compound]
2: CCCCCCCCCN(CCCCCCCCC)CCC1CCCN(C(=O)CN(CCCCCCCCC)CCN(CCCCCCCCC)CCCCCCCCC)C1 (centres unmarked)
Would you mind telling me which has the lower recorded PDI between 1 and 2 ? Your answer should be the label of the entry you select. 1
(1: 0.17, 2: 0.25)

---

assay: Encapsulation efficiency of RNA (QUANT-IT RIBOGREEN RNA assay); assay type: physicochemical; details: Table 1b
RECORDED ENDPOINT: EE (%)

COMPOUND	VALUE UNIT	EE (%)
CCCCCCCCCN(CCCC(=O)OCCCCC)CCC1CCN(C(=O)CN(CCCCCCCCC)CCN(CCCCCCCCC)CCCCCCCCC)CC1	%	99.12
CCCCCCCCCN(CCCCCCC(=O)OCC)CCC1CCN(C(=O)CN(CCCCCCCCC)CCN(CCCCCCCCC)CCCCCCCCC)CC1	%	98.9
CCCCCCCCCN(CCCOC(=O)CCCCC)CCCC1CCN(C(=O)CCN(CCCCCCCCC)CCN(CCCCCCCCC)CCCCCCCCC)CC1	%	98.67
CCCCCCCCCN(CCCCC(=O)OCCCC)CCC1CCN(C(=O)CN(CCCCCCCCC)CCN(CCCCCCCCC)CCCCCCCCC)CC1	%	98.8
CCCCCCCCCN(CCCCCCCCC)CCN(CCCCCCCCC)CC(=O)N1CCN(C(=O)CN(CCCCCCCCC)CCCCCCC(=O)OCC)CC1	%	82.8
CCCCCCCCCN(CCCCCCCCC)CCC1CCN(C(=O)CN(CCCCCCCCC)CCN(CCCCCCCCC)CCCCCCCCC)C1 (stereo not drawn)	%	99.31
CCCCCCCCCN(CCCC(=O)OCCCCC)CCC1CCCN(C(=O)CN(CCCCCCCCC)CCN(CCCCCCCCC)CCCCCCCCC)C1 (stereo not drawn)	%	98.93
CCCCCCCCCN(CCCCCCCCC)CCN(CCCCCCCCC)CC(=O)N1CCN(C(=O)CN(CCCCCCCCC)CCCOC(=O)CCCCC)CC1	%	99.0
CCCCCCCCCN(CCCCCCCCC)CCN(CCCCCCCCC)CC(=O)N1CCC(CN(CCCCCCCCC)CCCCCCCCC)C1 (stereo not drawn)	%	99.14
CCCCCCCCCN(CCCCCCCCC)CCN(CCCCCCCCC)CC(=O)N1CCN(C(=O)CN(CCCCCCCCC)CCCCC(=O)OCCCC)CC1	%	95.2
CCCCCCCCCN(CCCCCCCCC)CCN(CCCCCCCCC)CC(=O)N1CCC(CN(CCCCCCCCC)CCCC(=O)OCCCCC)C1 (stereo not drawn)	%	99.23
CCCCCCCCCN(CCCC(=O)OCCCCC)CCC1CCN(C(=O)CN(CCCCCCCCC)CCN(CCCCCCCCC)CCCCCCCCC)C1 (stereo not drawn)	%	99.27
